Assay: NCI Yeast Anticancer Drug Screen. Data for the mec2-1 strain (AID 157)
Settings: S. cerevisiae mec2-1 strain, stronger effect = higher value; at 50.0 µM unless noted
Compounds without any hit were thinned out: in the full panel of roughly 79,000, 15% have a hit.
ENDPOINT_NAME: growth inhibition (%)
// return numeric value only (unit: %, not printed)

// recorded growth inhibition for FC1=C(F)C2(F)C3CCC(O3)C2(F)C(Br)=C1F (stereo unspecified) : -3.3

// recorded growth inhibition for CCC(=O)c1cccc2cccc(C(c3ccccc3)c3ccccc3)c12 : 14.4

* * *

Assay: NCI Yeast Anticancer Drug Screen. Data for the bub3 strain (AID 167)
Conditions: S. cerevisiae bub3 mutant strain; at 50.0 µM unless noted
About 79,000 compounds went through this panel and 15% of them were active in at least one assay; those are over-represented in the sample as a whole. Activity calls are given as the source filed them. No stated cut-off is given here; in the data, active means growth inhibition above about 70%; inactive means the rest.
Please reply with one of these outcomes: 1 (yes) (active), 0 (no) (inactive)

// param item: O=C1c2ccccc2CCC1c1ccccc1 (configuration not stated) ; yields the recorded call
0 (no)

// param item: COCCOC(=O)COc1ccccc1 ; yields the recorded call
0 (no)
